B1: Transcription factor SOX-4, residues 60 to 127; numbered along this chain, Q06945 (parent)
chain: KRPMNAFMVWSQIERRKIMEQSPDMHNAEISKRLGKRWKLLKDSDKIPFIREAERLRLKHMADYPDYK

# Variants of: B1
# Experiment Description: abundance fitness (aPCA) (normalised: wild type 0, dead -1); higher = more abundant; growth selection in yeast, the domain comes from the species named
# Run Conditions: Homo sapiens
Outcome: MET for abundance fitness of at least -0.1; NOT MET for anything lower.

>>> print(df.to_string())
    mutation_notation      cat
 0               E29R  NOT MET
 1               D45H  NOT MET
 2               D66I  NOT MET
 3               P65S      MET
 4               Y64C      MET
 5               R33E      MET
 6               Y67F      MET
 7               N27W      MET
 8               D45L  NOT MET
 9               M25A      MET
10               R37F  NOT MET
11               L40V  NOT MET
12               G35R      MET
13               L56M      MET
14               E54P  NOT MET
15               R33W      MET
16               K59P  NOT MET
17               S22H      MET
18               H60I  NOT MET
19               A62G      MET
20               M61A      MET
21               D63A      MET
22               K32Y      MET
23               R37L  NOT MET
24               K46T  NOT MET
25               P48F  NOT MET
26               G35C      MET
27               A53E  NOT MET
28               Q21T      MET
29               S22M  NOT MET
30               M25D  NOT MET
31               P48V  NOT MET
32               R57V  NOT MET
33               Y67W  NOT MET
34               P23Q  NOT MET

Attribution: the Human Domainome abundance scans (Beltran et al. 2025)
